Listed here are compounds together with their documented AM/CELL NORM.
Tested on: T. cruzi intracellular amastigotes in H9c2 cells
assay: Rate-of-Kill (RoK) high-content imaging assay, amastigotes per cell (AM/CELL) and curve descriptors
Type: cell-based, Trypanosoma cruzi
cond: Time 48; sheet figure 4 A

compound | AM/CELL NORM
CC1CN(S(=O)(=O)c2ccc(NC(=O)c3cc(C4CC4)nc4c3cnn4C(C)C)cc2)CC(C)O1 (stereo not shown) | -23.2452
COc1ccc(S(=O)(=O)Nc2ccccc2OC)cc1NC(=O)CCCc1c[nH]c2ccccc12 | 12.7734
O=C(N1CCc2ccccc2CC1)C1(C(=O)N2CCC(n3c(=O)[nH]c4ncccc43)CC2)CC1.O=C(O)C(F)(F)F | -155.332
O=C(Nc1ccc(Br)c(Cl)c1)Nc1ccc2c(c1)OCO2 | 11.8076

----------
Listed here are compounds together with their documented Cmin_Tox.
Tested on: H9c2 (rat cardiomyocytes)
assay: RoK assay, number of host cells nuclei (drug-related cytotoxicity, H9c2 output, Cmin_Tox)
cond: H9c2 host cells
measurement type: Cmin_Tox

compound | assayed target | result
O=c1[nH]ccc2ccc(-c3ccncc3)cc12 [TCMDC-143631] | H9c2 (rat cardiomyocytes) | >50 µM
Cc1cc(N(C)C)nc(Nc2ccccc2C)n1 [TCMDC-143109] | H9c2 (rat cardiomyocytes) | >50 µM
COc1ccc(C(C)(C)C)cc1S(=O)(=O)n1ccnc1 [TCMDC-143275] | H9c2 (rat cardiomyocytes) | >50 µM
O=C(CN(c1cccc(C(F)(F)F)c1)S(=O)(=O)c1ccc(Cl)cc1)NCc1ccc(F)c(F)c1 [TCMDC-143548] | H9c2 (rat cardiomyocytes) | >50 µM
COc1ccc(NS(=O)(=O)c2cc(-c3cc(C)[nH]n3)ccc2C)cc1OC [TCMDC-143194] | H9c2 (rat cardiomyocytes) | 18.5 µM
Cc1cccc(N2CCCN(Cc3c[nH]c4ccccc34)CC2)n1 [TCMDC-143185] | H9c2 (rat cardiomyocytes) | 5.6 µM
COc1ccc(CN(C)Cc2ccncc2)cc1-c1ccc(S(=O)(=O)NC2CCC2)s1.O=C(O)C(F)(F)F.O=C(O)C(F)(F)F [TCMDC-143084] | H9c2 (rat cardiomyocytes) | >50 µM
CCC(=O)Nc1ccc(-c2nc3ccc(Cl)cc3[nH]2)cc1 [TCMDC-143135] | H9c2 (rat cardiomyocytes) | >50 µM
CS(=O)(=O)c1ccc(CC(=O)Nc2nc(-c3ccc(Cl)s3)cs2)cc1 [TCMDC-143224] | H9c2 (rat cardiomyocytes) | >50 µM

----------
System: T. cruzi intracellular amastigotes in H9c2 cells
assay: Rate-of-Kill (RoK) high-content imaging assay, amastigotes per cell (AM/CELL) and curve descriptors
Format: cell-based, Trypanosoma cruzi
cond: maximum effect at 72 h, RoK assay
Response key: yes (1) means ME_72h (%) >= 50%; no (0) means ME_72h (%) < 50%.

molecule | group label
Cn1cc(CN2CCN(c3ccc4c(c3)CCN(C(=O)[C@H]3C[C@@H]3c3ccccc3)CC4)CC2)cn1 | yes (1)
Cc1cc(N(C)C)nc(Nc2ccccc2C)n1 | yes (1)
CC(CNS(=O)(=O)c1ccc(OC(F)F)cc1)c1ccc(NC(=O)c2ccncc2)cc1 (centres unmarked) | no (0)
COc1ccc(NS(=O)(=O)c2cc(NC(=O)c3ccc([N+](=O)[O-])s3)ccc2OC)cc1 | yes (1)
O=C(NC1C(=O)N(c2ccccc2)C1c1cccnc1)c1ccc(Cl)s1 (centres unmarked) | no (0)
O=C(N1CCc2ccccc2CC1)C1(C(=O)N2CCC(n3c(=O)[nH]c4ncccc43)CC2)CC1.O=C(O)C(F)(F)F | no (0)
COc1ccc(S(=O)(=O)NCc2ccc(-c3ccc(CN(C)CCO)cc3)cc2)cc1.O=C(O)C(F)(F)F | yes (1)
CNc1c(C(N)=O)c(-c2ccc3scnc3c2)nn1CC(F)(F)F.O=C(O)C(F)(F)F | no (0)
